Target: PI3-kinase p110-alpha/p85-alpha (Homo sapiens) (UniProt P27986+P42336)
Experiment: Inhibition of recombinant human full length N-terminal His-tagged/untagged p110alpha/p85alpha expressed in baculovirus expression system at 500 nM using PIP2 as substrate after 1 hr by Kinase-Glo reagent-based assay relative to control
quantity_kind: inhibition (%)

Look over these answered cases.
O=C(CCCCCn1ncc2c(N3CCOCC3)nc(N3CCOCC3)nc21)NO :: 1
O=C(CCCCCCn1ncc2c(N3CCOCC3)nc(N3CCOCC3)nc21)NO :: 4.5
CN1CCN(c2nc(N3CCOCC3)c3cnn(CCCCCC(=O)NO)c3n2)CC1 :: 1.5

A = O=C(CCCCCCCn1ncc2c(N3CCOCC3)nc(N3CCOCC3)nc21)NO
B = O=C(CCCCCCn1ncc2c(N3CCOCC3)nc(-c3ccsc3)nc21)NO
[ask] Of the two listed items, which has the higher inhibition? First: A Second: B # respond with the chosen item's label
[reply] B
(B: 9.7%, A: -1.2%)

----------
Biological target: Histone deacetylase 4 (Homo sapiens, UniProt P56524)
Sequence (P56524 whole entry): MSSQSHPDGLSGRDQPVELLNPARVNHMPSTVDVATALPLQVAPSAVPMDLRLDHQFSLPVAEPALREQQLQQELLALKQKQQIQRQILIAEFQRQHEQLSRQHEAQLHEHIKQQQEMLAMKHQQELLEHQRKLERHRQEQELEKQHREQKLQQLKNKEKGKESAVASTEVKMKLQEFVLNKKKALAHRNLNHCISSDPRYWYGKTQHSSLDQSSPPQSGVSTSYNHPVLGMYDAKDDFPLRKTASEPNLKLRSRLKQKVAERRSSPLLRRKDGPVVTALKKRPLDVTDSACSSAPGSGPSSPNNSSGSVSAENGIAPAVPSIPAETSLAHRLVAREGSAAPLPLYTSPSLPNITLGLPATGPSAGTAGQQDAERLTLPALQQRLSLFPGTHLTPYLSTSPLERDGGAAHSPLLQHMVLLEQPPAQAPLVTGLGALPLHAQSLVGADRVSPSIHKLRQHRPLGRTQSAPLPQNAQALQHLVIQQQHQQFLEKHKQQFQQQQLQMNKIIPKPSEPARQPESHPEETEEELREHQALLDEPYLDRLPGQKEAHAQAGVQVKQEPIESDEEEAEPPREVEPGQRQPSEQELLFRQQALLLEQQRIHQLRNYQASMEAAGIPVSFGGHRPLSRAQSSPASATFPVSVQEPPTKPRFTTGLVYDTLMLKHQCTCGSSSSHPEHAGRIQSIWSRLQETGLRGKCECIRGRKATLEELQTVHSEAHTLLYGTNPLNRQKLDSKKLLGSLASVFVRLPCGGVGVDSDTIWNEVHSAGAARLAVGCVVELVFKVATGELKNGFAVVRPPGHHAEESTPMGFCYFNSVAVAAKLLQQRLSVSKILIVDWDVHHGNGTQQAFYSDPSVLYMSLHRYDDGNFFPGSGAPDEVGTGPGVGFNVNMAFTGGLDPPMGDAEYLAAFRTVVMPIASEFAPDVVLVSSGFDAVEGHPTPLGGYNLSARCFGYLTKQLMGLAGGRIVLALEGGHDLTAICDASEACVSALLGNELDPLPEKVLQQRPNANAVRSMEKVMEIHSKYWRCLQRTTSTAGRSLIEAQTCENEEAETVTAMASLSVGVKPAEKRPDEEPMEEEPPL
Experiment: Inhibition of recombinant full length human HDAC4 expressed in baculovirus infected sf9 cells using Ac-peptide-AMC as substrate preincubated for 15 mins followed by substrate addition and measured after 1 hr by fluorescence assay
pIC50: −log10 of the molar value.
quantity_kind: pIC50

[ask] What value of measured pIC50 is listed for C[C@@H]1CN(C(=O)Nc2ccc(-c3nc(N4CCOCC4)c4cnn(CCCCCCC(=O)NO)c4n3)cc2)CCO1 ?
[reply] < 6.00

----------
Test system: MV4-11
Assay: Antiproliferative activity against human MV4-11 cells after 72 hrs by MTT assay
Format: functional, cell-based
Conditions: MV4-11, 72 h
pIC50: −log10 of the molar value.
quantity_kind: pIC50

C[C@@H]1CN(C(=O)Nc2ccc(-c3nc(N4CCOCC4)c4cnn(CCCCCCC(=O)NO)c4n3)cc2)CCO1 :: 8.39
O=C(CCCCCCn1ncc2c(N3CCOCC3)nc(-c3ccc(NC(=O)N4CCOCC4)cc3)nc21)NO :: 7.90
CN1CCN(C(=O)Nc2ccc(-c3nc(N4CCOCC4)c4cnn(CCCCCCC(=O)NO)c4n3)cc2)CC1 :: 8.15
O=C(CCCCCCn1ncc2c(N3CCOCC3)nc(-c3ccc(NC(=O)N4CCSCC4)cc3)nc21)NO :: 7.86
CCCCNC(=O)Nc1ccc(-c2nc(N3CCOCC3)c3cnn(CCCCCCC(=O)NO)c3n2)cc1 :: 7.74

P = O=C(CCCCCCn1ncc2c(N3CCOCC3)nc(-c3ccc(NC(=O)N4CCNCC4)cc3)nc21)NO
Q = CCNC(=O)Nc1ccc(-c2nc(N3CCOCC3)c3cnn(CCCCCCC(=O)NO)c3n2)cc1
R = CCN1CCN(C(=O)Nc2ccc(-c3nc(N4CCOCC4)c4cnn(CCCCCCC(=O)NO)c4n3)cc2)CC1
[ask] Please produce an ascending ranking of these molecules based on pIC50. # format: label list in the order the request specifies
[reply] P, Q, R

----------
Molecular target: Serine/threonine-protein kinase mTOR (Homo sapiens, UniProt P42345)
Experiment: Inhibition of recombinant N-terminal FLAG-tagged human mTOR (1362 to end residues) at 500 nM using ULight-4E-BP1 (Thr37/46) peptide as substrate after 1 hr by fluorescence assay relative to control
quantity_kind: inhibition (%)

a = O=C(CCCCCCn1ncc2c(N3CCOCC3)nc(-c3cccnc3)nc21)NO
b = O=C(CCCCCCn1ncc2c(N3CCOCC3)nc(-c3cc[nH]c3)nc21)NO
c = O=C(CCCCCCn1ncc2c(N3CCOCC3)nc(N3CCOCC3)nc21)NO
d = O=C(/C=C/c1ccc(Cn2ncc3c(N4CCOCC4)nc(N4CCOCC4)nc32)cc1)NO
[ask] Going from lowest to highest recorded inhibition, rank the entries listed above. # format: label list in the order the request specifies
[reply] d, c, a, b

Data credit: ChEMBL document CHEMBL4411315
